Target: Proprotein convertase subtilisin/kexin type 9 (Homo sapiens) (UniProt Q8NBP7)
Sequence (Q8NBP7 31-152 limits assumed): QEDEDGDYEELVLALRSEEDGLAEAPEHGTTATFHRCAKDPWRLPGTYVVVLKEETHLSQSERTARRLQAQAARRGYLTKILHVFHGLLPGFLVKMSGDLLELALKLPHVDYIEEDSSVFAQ
Sequence (Q8NBP7 153-692 limits assumed): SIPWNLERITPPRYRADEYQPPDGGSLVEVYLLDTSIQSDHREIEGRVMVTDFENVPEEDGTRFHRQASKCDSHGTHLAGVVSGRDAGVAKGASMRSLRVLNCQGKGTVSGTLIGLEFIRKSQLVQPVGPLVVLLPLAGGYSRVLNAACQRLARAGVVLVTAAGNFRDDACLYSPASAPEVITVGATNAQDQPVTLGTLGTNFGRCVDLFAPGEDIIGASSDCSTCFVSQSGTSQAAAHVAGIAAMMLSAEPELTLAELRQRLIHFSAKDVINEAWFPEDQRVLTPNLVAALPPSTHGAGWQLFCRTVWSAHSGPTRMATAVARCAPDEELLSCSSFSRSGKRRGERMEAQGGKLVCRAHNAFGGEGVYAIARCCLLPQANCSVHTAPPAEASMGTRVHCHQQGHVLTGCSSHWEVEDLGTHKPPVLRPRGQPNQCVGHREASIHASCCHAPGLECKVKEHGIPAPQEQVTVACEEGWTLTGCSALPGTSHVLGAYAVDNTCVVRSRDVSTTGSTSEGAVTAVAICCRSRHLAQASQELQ
Experiment: Inhibition of PCSK9 transcriptional activity in human HepG2 cells stably expressing luciferase reporter plasmid containing PCSK9 promoter assessed as decrease in luciferase activity at 10 ug/ml incubated for 24 hrs by Luciferase assay relative to control
Assay type: cell-based
Conditions: dose 10.0 µg/ml
measuredQuantity: inhibition (%)

I = COc1cccc(Cn2c(NC[C@@H](C)O)nc3c2c(=O)n(C)c(=O)n3C)c1
II = Cn1c(=O)c2c(nc(NCCO)n2Cc2ccccc2Br)n(C)c1=O
Challenge: Pick one, I or II : lowest reported inhibition. To answer, give the label that identifies your chosen option.
Response given: II

The reported numbers originate from ChEMBL document CHEMBL5331095.
